// data source = PubChem BioAssay AID2685

assay_summary: qHTS Assay for Lipid Storage Modulators in Drosophila S3 Cells
details: BODIPY lipid droplet fluorescence, 18-24 h, cells fed with added oleic acid; series mostly up to 46.1 µM
Among all 320,000 compounds or so, about 2,100 (0.66%) were called active. Another 53% or so got no clear call; they are omitted. Calls come from the whole dose curve; as a rule, active = well fitted inhibition curve with a large enough effect in the signal ratio, with a control signal flat (not every such curve was filed as active); inconclusive = small, poorly fitted or top-dose-only effect, or effect the other way, or a change in a side signal; inactive = flat fitted curve, though single readings scatter; the % refers to the signal ratio. Shown is part of a subset that was picked to be rich in actives.
Write down the outcome that applies. Available outcomes: active, inactive

Answered cases to consult:
COc1cccc(C(=O)Nc2nnc(S(=O)(=O)N3CCCC3)s2)c1 : active
CCOc1ncccc1C(=O)NCc1ccccc1Cl : inactive

q: Fill in: this test's call for `O=C1c2ccccc2C(=O)N1Cc1ccccn1` is ___
a: inactive

----------
assay_summary: qHTS Assay for Lipid Storage Modulators in Drosophila S3 Cells;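 for cell number change: cells counted by Cell Tracker Red CMTPX staining in the red channel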
details: BODIPY lipid droplet fluorescence, 18-24 h, cells fed with added oleic acid; measured here: cell count max response
About 2,100 (0.66%) of roughly 320,000 compounds were called active. About 53% were inconclusive and are not listed. This excerpt belongs to a sample that is enriched for actives.
readout: cell number change (%)
Supply the numeric figure in %, leaving out any unit text.

Study these solved cases before continuing.
Cc1ccc(N/C(N)=N/c2nc3c(c(=O)[nH]2)CCCC3)c(C)c1 : 25.1
O=C(O)COCc1nc2ccccc2[nH]1 : 0.419
CCCS(=O)(=O)N1CCN(CCCc2ccccc2)CC1 : 6.21
O=C(N=Nc1c(O)[nH]c2ccccc12)c1cccs1 : -7.18

q: Suppose we examine the molecule COC(=O)C1=NN(C(C)(C)CC(C)=O)C2C(=O)N(C3CCCCC3)C(=O)C12 (stereo not drawn) ; what cell number change value has been reported?
a: -0.806

q: Suppose we examine the molecule `Cc1nn(-c2ccccc2)c(C)c1-c1ccccc1O` ; what cell number change value has been reported?
a: -20.1

q: Suppose we examine the molecule Cc1cccc(N2CCN(C(=O)CC(NC(=O)c3ccccc3Cl)c3ccccc3)CC2)c1C (stereo not drawn) ; what cell number change value has been reported?
a: -1.65

q: Suppose we examine the molecule `COc1ccc(/C=N/Nc2cc(C)nc(N3CCOCC3)n2)c(OC)c1` ; what cell number change value has been reported?
a: -6.43

q: Suppose we examine the molecule CC12CN3CC(C)(CN(C1)C3c1ccc(F)cc1)C2 (stereo not drawn) ; what cell number change value has been reported?
a: -6.72

----------
assay_summary: qHTS Assay for Lipid Storage Modulators in Drosophila S3 Cells;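 for cell number change: cells counted by Cell Tracker Red CMTPX staining in the red channel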
details: BODIPY lipid droplet fluorescence, 18-24 h, cells fed with added oleic acid; measured here: cell count max response
Out of some 320,000 compounds screened, about 2,100 (0.66%) were called active. Inconclusive results (about 53%) are left out. What follows is part of a selection rich in actives, with near analogues and random picks from the rest.
# cell number change values compiled below
Supply the numeric figure in %, leaving out any unit text.

Study these solved cases before continuing.
O=C(OCc1cc(Cl)ccc1OC(F)F)c1cc(S(=O)(=O)O)ccc1O : -6.52
COc1ccc(O)c(-c2cc(-c3ccccc3[N+](=O)[O-])[nH]n2)c1 : -1.9
O=C(COC(=O)c1ccc[nH]c1=O)NC1CCCc2ccccc21 (stereo not drawn) : 6.05
COc1ccc(/C=C2\N=C(C)N(c3ccc4ccccc4c3)C2=O)cc1OC : 14.3

q: Suppose we examine the molecule `Nc1ccc(-n2nnnc2CN2CCOCC2)cc1` ; what cell number change value has been reported?
a: 0.0095

q: Suppose we examine the molecule `Cn1nnc(NC(=O)c2ccccc2)n1` ; what cell number change value has been reported?
a: -11.2

q: Suppose we examine the molecule `C=CCn1c(SCc2ccc(C(=O)NCCO)cc2)nc2sc(C)c(C)c2c1=O` ; what cell number change value has been reported?
a: 22.5

----------
assay_summary: qHTS Assay for Lipid Storage Modulators in Drosophila S3 Cells
details: BODIPY lipid droplet fluorescence, 18-24 h, cells fed with added oleic acid; series mostly up to 46.1 µM
About 2,100 (0.66%) of roughly 320,000 compounds were called active. Not shown: some 53% with an inconclusive outcome. The call rests on the fitted dose curve; in most records, active means well fitted inhibition curve with a large enough effect in the signal ratio, with a control signal flat (not every such curve was filed as active); inconclusive means small, poorly fitted or top-dose-only effect, or effect the other way, or a change in a side signal; inactive means flat fitted curve, though single readings scatter; the % refers to the signal ratio. What follows is part of a selection rich in actives, with near analogues and random picks from the rest.
Write down the outcome that applies. Available outcomes: active, inactive

Answered cases to consult:
CC(C)CCNC(=O)C1CCCN1C(=O)NC1CCCCC1 (centres undefined) : inactive
CC12CCC(C(=O)NCc3ccccc3)(OC1=O)C2(C)C (centres undefined) : inactive
O=C(O)c1cccc(NC(=S)NC(NC(=O)c2cccc([N+](=O)[O-])c2)C(Cl)(Cl)Cl)c1 (centres undefined) : inactive
O=C1CCC(C(=O)NCc2ccccc2)N1 (centres undefined) : inactive
COc1cccc(-c2cc(C(=O)Nc3cccnc3)c3ccccc3n2)c1 : active
CCC(=O)N1CCN(c2ccc(NC(=O)c3ccc4c(c3)OCCO4)cc2)CC1 : inactive

q: Fill in: this test's call for `Cc1ccc2sc(NC(=O)CN3C(=O)c4ccccc4C3=O)nc2c1C` is ___
a: inactive

q: Fill in: this test's call for `CC(C)(C)c1cc(S(=O)(=O)CCc2ccncc2)cc(C(C)(C)C)c1F` is ___
a: inactive

q: Fill in: this test's call for `Cn1c(SCc2ccc(Br)cc2)nc2ccccc2c1=O` is ___
a: inactive

----------
# cell number change values compiled below
assay_summary: qHTS Assay for Lipid Storage Modulators in Drosophila S3 Cells;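 for cell number change: cells counted by Cell Tracker Red CMTPX staining in the red channel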
details: BODIPY lipid droplet fluorescence, 18-24 h, cells fed with added oleic acid; measured here: cell count max response
Among all 320,000 compounds or so, about 2,100 (0.66%) were called active. Inconclusive results (about 53%) are left out. The sample as a whole holds a higher share of actives than the screen did.
Supply the numeric figure in %, leaving out any unit text.

Cc1ccsc1C(=O)OCC(=O)NC1CCCC1 : -11
Cc1cc(C)c(OCC(=O)OCC(=O)NC2CCCCCCC2)c(C)c1 : 19.3
Cc1ccsc1C(=O)OCC(=O)NC1CCS(=O)(=O)C1 (stereo unspecified) : 0.0545
Cc1ccsc1C(=O)OCC(=O)NCCNC(=O)COC(=O)c1sccc1C : 12.8
O=S(=O)(NC1CC1)c1ccc(S(=O)(=O)N2CCC3(CC2)OCCO3)cc1 : 0.569

q: Suppose we examine the compound `O=C(COC(=O)c1cccc(C(=O)OCC(=O)NC2CCCCC2)n1)NC1CCCCC1` ; what cell number change value has been reported?
a: -17.1

----------
assay_summary: qHTS Assay for Lipid Storage Modulators in Drosophila S3 Cells
details: BODIPY lipid droplet fluorescence, 18-24 h, cells fed with added oleic acid; series mostly up to 46.1 µM
About 2,100 (0.66%) of roughly 320,000 compounds were called active. About 53% were inconclusive and are not listed. The call rests on the fitted dose curve; in most records, active means well fitted inhibition curve with a large enough effect in the signal ratio, with a control signal flat (not every such curve was filed as active); inconclusive means small, poorly fitted or top-dose-only effect, or effect the other way, or a change in a side signal; inactive means flat fitted curve, though single readings scatter; the % refers to the signal ratio. Many of the other results were omitted from the sample, so actives are more common in it than they were.
Write down the outcome that applies. Available outcomes: 1 (yes) (active), 0 (no) (inactive)

Answered cases to consult:
CSc1ccc(C(=O)C2CCCN(C(=O)c3cc4cc(F)ccc4[nH]3)C2)cc1 (stereo not drawn) : 0 (no)
COc1ccc(CCNC(=O)COc2ccc(S(=O)(=O)NC3CCCCC3)cc2Cl)cc1OC : 1 (yes)
COc1ccc(CCNS(=O)(=O)c2ccc(Br)cc2)cc1OC : 0 (no)

q: Fill in: this test's call for `Cc1ccc(C(=O)Nc2cccc(C(F)(F)F)c2)cc1NC(=O)c1nccnc1N` is ___
a: 0 (no)

q: Fill in: this test's call for `CCOC(=O)CNC(=O)CSc1ncnc2c1cnn2-c1ccc(C)cc1` is ___
a: 0 (no)

q: Fill in: this test's call for CC(=O)N(CCC(c1ccco1)C(C)C)Cc1ccc(OC(C)C)cc1 (stereo not drawn) is ___
a: 0 (no)

q: Fill in: this test's call for Cc1cccc(NC(=O)C(c2ccccc2Cl)N2CCOCC2)c1 (stereo not drawn) is ___
a: 0 (no)

q: Fill in: this test's call for `COc1cc(S(=O)(=O)NCc2ccccc2)ccc1Br` is ___
a: 0 (no)

q: Fill in: this test's call for Cc1nn(C(C)C(=O)NC2C(=O)N3C(C(=O)O)=C(CSc4nnnn4C)CSC23)cc1Cl (stereo not drawn) is ___
a: 0 (no)

q: Fill in: this test's call for `CCOC(=O)CSc1ncnc2c1cnn2-c1ccccc1` is ___
a: 0 (no)

----------
assay_summary: qHTS Assay for Lipid Storage Modulators in Drosophila S3 Cells;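 for cell number change: cells counted by Cell Tracker Red CMTPX staining in the red channel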
details: BODIPY lipid droplet fluorescence, 18-24 h, cells fed with added oleic acid; measured here: cell count max response
About 2,100 (0.66%) of roughly 320,000 compounds were called active. Another 53% or so got no clear call; they are omitted. What follows is part of a selection rich in actives, with near analogues and random picks from the rest.
readout: cell number change (%)
Supply the numeric figure in %, leaving out any unit text.

q: Suppose we examine the compound `CCCn1c(N)c(C(=O)CSc2nnc(C3CC3)n2Cc2ccccc2)c(=O)[nH]c1=O` ; what cell number change value has been reported?
a: 7.78

q: Suppose we examine the compound `COc1cc(C(=O)Oc2ccc(C(=S)N3CCOCC3)cc2)cc(OC)c1OC` ; what cell number change value has been reported?
a: -0.493

q: Suppose we examine the compound `O=C(CN1C(=O)c2ccccc2C1=O)Nc1ccccc1C(=O)NC1CCCCCC1` ; what cell number change value has been reported?
a: 2.31

q: Suppose we examine the compound `Cc1nc(NS(=O)(=O)c2ccccc2)sc1NC(=O)Nc1ccc(Cl)cc1` ; what cell number change value has been reported?
a: 3.01

q: Suppose we examine the compound `Cc1ccc(SCc2cc(=O)n3ccsc3n2)c(C)c1` ; what cell number change value has been reported?
a: -12.5
